Catalogue of t1/2 values
- Tested on: human liver microsomes
- Test description: Hepatic microsomal stability, human
- Format: in vitro ADME
- Condition notes: 1 μM, NADPH

{"columns": ["Chemical string", "Measured endpoint", "Endpoint result"],
 "data": [
  ["Cc1cccc(Nc2nc(-c3cc4ccccc4o3)cs2)n1", "t1/2", "> 1 h"],
  ["Cc1ccc(Nc2nc(-c3ccc(-c4ccccc4)cc3)cs2)nc1", "t1/2", "> 1 h"]
]}

Then there is this molecule:
Value lookup for t1/2; key = `COc1ccc(Nc2nc(-c3ccc(OC)c(OC)c3)cs2)nc1` 0.967 h

---

- Test description: Media solubility
- Assay type: physicochemical
- Condition notes: media used in the cell-based assays, 10% FBS
Measured endpoint: Solubility Media

Reported Solubility Media for `COc1ccc(-c2csc(Nc3cc4ccccc4cn3)n2)cc1OC` : what is it? 174 µM

Proceed to `c1ccc2cc(Nc3nc(-c4ccncc4)cs3)ncc2c1` 116 µM

Further, for `Cc1ccc(Nc2nc(-c3ccc(-c4ccccc4)cc3)cs2)nc1` ? >250 µM

Repeat with `COc1ccc(-c2csc(Nc3ccc4ccccc4n3)n2)cc1OC` 52 µM

// same read-out, input: `Cc1cccc(Nc2nc(-c3cc4ccccc4o3)cs2)n1` 20 µM

`Cc1ccc(Nc2nc(-c3cc(-c4ccccc4)no3)cs2)nc1` ? 225 µM

Same for `Cc1ccnc(Nc2nc(-c3ccncc3)cs2)c1` 76 µM

---

- Test description: Single-dose oral gavage PK at 10 mg/kg
- Assay type: in vivo, FVB mice
- Condition notes: female, FVB, mouse, brain, po, 10 mg/kg
Measured endpoint: Cmax (µM)
Kindly provide the numeric value in µM only, without the unit symbol.

Query: Cmax; subject: C(=N\Nc1ccc(-c2cnco2)cc1)/c1ccncc1 [Compd B, reference compound] 0.46

Data origin: paper PMC3640342
